system: p53-deficient cancer cell lines; test: Cytotoxicity assay, p53-deficient (p53mt) cancer cell lines; assay type: cell-based, human; conditions: Homo sapiens; read-out: IC50 for cancer cells, PARPi alone
pIC50: −log10 of the molar value.
assay_metric: pIC50

Field pIC50 (system: p53-deficient cancer cell lines) for entry Cn1ncnc1[C@H]1c2n[nH]c(=O)c3cc(F)cc(c23)N[C@@H]1c1ccc(F)cc1 [talazoparib] = 5.40 to 5.70

---

test system: MDA-MB-231 cells; test: Cytotoxicity assay (methylene blue), MDA-MB-231; format: cell-based, human; conditions: MDA-MB-231 (p53mt), single agent; read-out: IC50, cytotoxicity, drug alone
assay_metric: IC50
A complete answer gives the number followed by the unit.

Lookup result for "O=C(c1cc(Cc2n[nH]c(=O)c3ccccc23)ccc1F)N1CCN(C(=O)C2CC2)CC1" ; measured IC50: 17.4 µM

---

test system: MCF10A cells; assay: Cytotoxicity assay (methylene blue), MCF10A; type: cell-based, human; conditions: MCF10A (p53wt), single agent; read-out: IC50, cytotoxicity, drug alone
assay_metric: pIC50
pIC50 is defined as minus the log10 of a concentration measured in mol/L.

Lookup result for O=C(c1cc(Cc2n[nH]c(=O)c3ccccc23)ccc1F)N1CCN(C(=O)C2CC2)CC1 [olaparib] ; measured pIC50: 4.82
